PROCEDURE_SUMMARY: The drug is tested on WLS-038 corresponding to human gut metagenome with ENA study accession number: PRJEB37062 and ENA sample accession number: ERS12561745 for biotransformation under anaerobic condition. The drug concentrations were measured over 9 timepoints collected between 0 and 24 hours of incubation by liquid-chromatography-coupled mass spectrometry (LC–MS); note: call rule not given here
RUN_PARAMETERS: 2 µM
QUANTITY_KIND: Bacterial Biotransformation

These recorded examples may help you get a feel for the data.
{"COMPOUND": "OCCN1CCN(CCCN2c3ccccc3Sc3ccc(C(F)(F)F)cc32)CC1", "Bacterial Biotransformation": "Compound metabolized"}
{"COMPOUND": "O=C1[C@H](CC[C@H](O)c2ccc(F)cc2)[C@@H](c2ccc(O)cc2)N1c1ccc(F)cc1", "Bacterial Biotransformation": "Compound NOT metabolized"}
{"COMPOUND": "CC(Oc1c(Cl)cccc1Cl)C1=NCCN1 (stereo not drawn)", "Bacterial Biotransformation": "Compound NOT metabolized"}
{"COMPOUND": "Cc1ccc(S(=O)(=O)NC(=O)NN2CCCCCC2)cc1 [TOLAZAMIDE]", "Bacterial Biotransformation": "Compound metabolized"}
{"COMPOUND": "CC(CN(C)C)CN1c2ccccc2CCc2ccccc21.O=C(O)/C=C\\C(=O)O (stereo not drawn) [TRIMIPRAMINE MALEATE]", "Bacterial Biotransformation": "Compound NOT metabolized"}
{"COMPOUND": "COc1c(C)c2c(c(O)c1C/C=C(\\C)CCC(=O)OCCN1CCOCC1)C(=O)OC2 [MYCOPHENOLATE MOFETIL]", "Bacterial Biotransformation": "Compound metabolized"}

Problem: So what does the record say about Bacterial Biotransformation for CO[C@]12C[C@@H](COC(=O)c3cncc(Br)c3)CN(C)[C@@H]1Cc1cn(C)c3cccc2c13 ?
Result: Compound NOT metabolized

Problem: So what does the record say about Bacterial Biotransformation for CCCCC(=O)N(Cc1ccc(-c2ccccc2-c2nnn[nH]2)cc1)[C@H](C(=O)O)C(C)C ?
Result: Compound metabolized

* * *

RUN_PARAMETERS: human gut metagenome, 24 h, 2 µM
QUANTITY_KIND: Bacterial Biotransformation

{"COMPOUND": "CCOc1ccc(NC(C)=O)cc1", "Bacterial Biotransformation": "Compound NOT metabolized"}
{"COMPOUND": "Cc1ccc(/C(=C\\CN2CCCC2)c2ccccn2)cc1", "Bacterial Biotransformation": "Compound metabolized"}
{"COMPOUND": "COc1c2occc2cc2ccc(=O)oc12", "Bacterial Biotransformation": "Compound metabolized"}
{"COMPOUND": "CCCCC(=O)N(Cc1ccc(-c2ccccc2-c2nnn[nH]2)cc1)[C@H](C(=O)O)C(C)C", "Bacterial Biotransformation": "Compound metabolized"}
{"COMPOUND": "CC(Oc1c(Cl)cccc1Cl)C1=NCCN1 (centres undefined)", "Bacterial Biotransformation": "Compound metabolized"}
{"COMPOUND": "COc1cc2c(c(OC)c1OC)-c1ccc(OC)c(=O)cc1[C@@H](NC(C)=O)CC2", "Bacterial Biotransformation": "Compound metabolized"}
{"COMPOUND": "Nc1c2c(nc3ccccc13)CCCC2", "Bacterial Biotransformation": "Compound metabolized"}
{"COMPOUND": "Cc1nc2n(c(=O)c1CCN1CCC(c3noc4cc(F)ccc34)CC1)CCCC2", "Bacterial Biotransformation": "Compound metabolized"}
{"COMPOUND": "CN1C[C@H](C(=O)N[C@]2(C)O[C@@]3(O)[C@@H]4CCCN4C(=O)[C@H](Cc4ccccc4)N3C2=O)C=C2c3cccc4[nH]cc(c34)C[C@H]21.CN1C[C@H](C(=O)N[C@]2(C)O[C@@]3(O)[C@@H]4CCCN4C(=O)[C@H](Cc4ccccc4)N3C2=O)C=C2c3cccc4[nH]cc(c34)C[C@H]21.O=C(O)C(O)C(O)C(=O)O [ERGOTAMINE TARTRATE]", "Bacterial Biotransformation": "Compound metabolized"}
{"COMPOUND": "COc1ccc2[nH]c([S+]([O-])Cc3ncc(C)c(OC)c3C)nc2n1 (centres undefined)", "Bacterial Biotransformation": "Compound NOT metabolized"}

Problem: So what does the record say about Bacterial Biotransformation for COc1cc2nc(N(C)CCCNC(=O)C3CCCO3)nc(N)c2cc1OC (centres undefined) ?
Result: Compound metabolized

Problem: So what does the record say about Bacterial Biotransformation for COc1cc2nc(N3CCN(C(=O)c4ccco4)CC3)nc(N)c2cc1OC ?
Result: Compound metabolized

Problem: So what does the record say about Bacterial Biotransformation for CNC(=C[N+](=O)[O-])NCCSCc1csc(CN(C)C)n1 ?
Result: Compound metabolized

Problem: So what does the record say about Bacterial Biotransformation for Nc1ccc(/N=N/c2ccccc2)c(N)n1 ?
Result: Compound metabolized

Problem: So what does the record say about Bacterial Biotransformation for O=C(CCCN1CCC(O)(c2ccc(Cl)cc2)CC1)c1ccc(F)cc1 ?
Result: Compound metabolized
